test: activity coefficient (dimensionless); of the first substance listed, at infinite dilution; xn = mol fraction of the nth substance listed; settings: 322.85 K; Liquid; Chromatography; x1 = 0
measured_parameter: activity coefficient
// response body must contain only the number

Record excerpt, results attached:
compound | endpoint_result
ClC(Cl)(Cl)Cl [tetrachloromethane] + CCCC[N+](C)(CCCC)CCCC.O=S(=O)([N-]S(=O)(=O)C(F)(F)F)C(F)(F)F | 2.11
c1ccccc1 [benzene] + CCCCCCCCCC[N+](C)(C)C.O=S(=O)([N-]S(=O)(=O)C(F)(F)F)C(F)(F)F | 0.71
C1COCCO1 [1,4-dioxane] + CCCCCCCC[N+](CCCCCCCC)(CCCCCCCC)CCCCCCCC.O=S(=O)([N-]S(=O)(=O)C(F)(F)F)C(F)(F)F | 0.47
CO [methanol] + CCCCCCCC[N+](C)(C)C.O=S(=O)([N-]S(=O)(=O)C(F)(F)F)C(F)(F)F | 0.92
CCCCCCC [heptane] + CCCCCCCCCC[N+](C)(C)C.O=S(=O)([N-]S(=O)(=O)C(F)(F)F)C(F)(F)F | 5.26

What does the data say about its activity coefficient? Entry: c1ccccc1 [benzene] + CCCCCCCC[N+](C)(C)C.O=S(=O)([N-]S(=O)(=O)C(F)(F)F)C(F)(F)F 0.73

Next compound up: CO [methanol] + CCCCCCCC[N+](CCCCCCCC)(CCCCCCCC)CCCCCCCC.O=S(=O)([N-]S(=O)(=O)C(F)(F)F)C(F)(F)F 0.65

###

test: activity coefficient (dimensionless); of the first substance listed, at infinite dilution; xn = mol fraction of the nth substance listed; details: 343.15 K; Liquid; Chromatography; x1 = 0
This listing pairs molecules with measured activity coefficient.
API note: the answer field is a bare number with no unit suffix.

molecule | activity coefficient
c1ccncc1 [pyridine] + CCCCCCCC[N+](C)(C)C.O=S(=O)([N-]S(=O)(=O)C(F)(F)F)C(F)(F)F | 0.43
C1CCCCCC1 [cycloheptane] + CCCCCCCC[N+](CCCCCCCC)(CCCCCCCC)CCCCCCCC.O=S(=O)([N-]S(=O)(=O)C(F)(F)F)C(F)(F)F | 4.37
CC(C)O [propan-2-ol] + CCCCCCCC[N+](CCCCCCCC)(CCCCCCCC)CCCCCCCC.O=S(=O)([N-]S(=O)(=O)C(F)(F)F)C(F)(F)F | 1.05
CCCCO [butan-1-ol] + CCCC[N+](C)(CCCC)CCCC.O=S(=O)([N-]S(=O)(=O)C(F)(F)F)C(F)(F)F | 1.73

What activity coefficient value was documented for this molecule, CCC(C)CC [3-methylpentane] + CCCC[N+](C)(CCCC)CCCC.O=S(=O)([N-]S(=O)(=O)C(F)(F)F)C(F)(F)F ? 5.86

Consider next the molecule CO [methanol] + CCCCCCCC[N+](C)(C)C.O=S(=O)([N-]S(=O)(=O)C(F)(F)F)C(F)(F)F in the same way. 0.81

Check CCO [ethanol] + CCCCCCCC[N+](C)(C)C.O=S(=O)([N-]S(=O)(=O)C(F)(F)F)C(F)(F)F too. 1.19

###

assay: activity coefficient (dimensionless); of the first substance listed, at infinite dilution; xn = mol fraction of the nth substance listed; conditions: 332.65 K; Liquid; Chromatography; x1 = 0
measured_parameter: activity coefficient
Number, no unit, nothing else.

compound | activity coefficient
CC#N [acetonitrile] + CCCCCCCCCC[N+](C)(C)C.O=S(=O)([N-]S(=O)(=O)C(F)(F)F)C(F)(F)F | 0.44

API: the following record is the query input.
Requested field: activity coefficient. Item: C1CCCCCC1 [cycloheptane] + CCCCCCCC[N+](C)(C)C.O=S(=O)([N-]S(=O)(=O)C(F)(F)F)C(F)(F)F 14.7

###

test: activity coefficient (dimensionless); of the first substance listed, at infinite dilution; xn = mol fraction of the nth substance listed; conditions: 332.65 K; Liquid; Chromatography; x1 = 0
// returns NOT MET unless activity coefficient is strictly below 1, in which case MET

Use the examples below as a reference point.
molecule | assigned_label
CCc1ccccc1 [ethylbenzene] + CCCCCCCCCC[N+](C)(C)C.O=S(=O)([N-]S(=O)(=O)C(F)(F)F)C(F)(F)F | NOT MET
C#CCCCCC [1-heptyne] + CCCCCCCCCC[N+](C)(C)C.O=S(=O)([N-]S(=O)(=O)C(F)(F)F)C(F)(F)F | NOT MET
CCCCCCCCCCCC [dodecane] + CCCC[N+](C)(CCCC)CCCC.O=S(=O)([N-]S(=O)(=O)C(F)(F)F)C(F)(F)F | NOT MET
CCC=O [propanal] + CCCC[N+](C)(CCCC)CCCC.O=S(=O)([N-]S(=O)(=O)C(F)(F)F)C(F)(F)F | MET
ClCCl [dichloromethane] + CCCCCCCCCC[N+](C)(C)C.O=S(=O)([N-]S(=O)(=O)C(F)(F)F)C(F)(F)F | MET

Please check: activity coefficient for CCO [ethanol] + CCCCCCCCCC[N+](C)(C)C.O=S(=O)([N-]S(=O)(=O)C(F)(F)F)C(F)(F)F , strictly under 1 or not? NOT MET

And ClC(Cl)Cl [trichloromethane] + CCCCCCCC[N+](C)(C)C.O=S(=O)([N-]S(=O)(=O)C(F)(F)F)C(F)(F)F ? MET

###

test: activity coefficient (dimensionless); of the first substance listed, at infinite dilution; xn = mol fraction of the nth substance listed; details: 332.65 K; Liquid; Chromatography; x1 = 0
Reported activity coefficient by item:
// print number alone

molecule | activity coefficient
CO [methanol] + CCCCCCCCCC[N+](C)(C)C.O=S(=O)([N-]S(=O)(=O)C(F)(F)F)C(F)(F)F | 0.91
c1ccncc1 [pyridine] + CCCCCCCC[N+](CCCCCCCC)(CCCCCCCC)CCCCCCCC.O=S(=O)([N-]S(=O)(=O)C(F)(F)F)C(F)(F)F | 0.33
ClC(Cl)(Cl)Cl [tetrachloromethane] + CCCC[N+](C)(CCCC)CCCC.O=S(=O)([N-]S(=O)(=O)C(F)(F)F)C(F)(F)F | 2.11
Cc1ccccc1C [1,2-dimethylbenzene] + CCCC[N+](C)(CCCC)CCCC.O=S(=O)([N-]S(=O)(=O)C(F)(F)F)C(F)(F)F | 1.46
C#CCCCCC [1-heptyne] + CCCCCCCC[N+](C)(C)C.O=S(=O)([N-]S(=O)(=O)C(F)(F)F)C(F)(F)F | 2.46
CCN(CC)CC [triethylamine] + CCCCCCCCCC[N+](C)(C)C.O=S(=O)([N-]S(=O)(=O)C(F)(F)F)C(F)(F)F | 2.4
Cc1cccc(C)c1 [1,3-dimethylbenzene] + CCCCCCCC[N+](CCCCCCCC)(CCCCCCCC)CCCCCCCC.O=S(=O)([N-]S(=O)(=O)C(F)(F)F)C(F)(F)F | 0.6
CC(C)CO [2-methyl-1-propanol] + CCCCCCCC[N+](C)(C)C.O=S(=O)([N-]S(=O)(=O)C(F)(F)F)C(F)(F)F | 1.7

Please look up its activity coefficient: Cc1ccccc1 [toluene] + CCCC[N+](C)(CCCC)CCCC.O=S(=O)([N-]S(=O)(=O)C(F)(F)F)C(F)(F)F 1.19

Could you do the same for CC(C)OC(C)C [diisopropyl ether] + CCCC[N+](C)(CCCC)CCCC.O=S(=O)([N-]S(=O)(=O)C(F)(F)F)C(F)(F)F , please? 3.35

Follow-up entry: CCCCCCC [heptane] + CCCCCCCCCC[N+](C)(C)C.O=S(=O)([N-]S(=O)(=O)C(F)(F)F)C(F)(F)F 5.14

// next record CC#N [acetonitrile] + CCCC[N+](C)(CCCC)CCCC.O=S(=O)([N-]S(=O)(=O)C(F)(F)F)C(F)(F)F 0.5

Next molecule: CCCO [propan-1-ol] + CCCCCCCCCC[N+](C)(C)C.O=S(=O)([N-]S(=O)(=O)C(F)(F)F)C(F)(F)F 1.37

###

assay: activity coefficient (dimensionless); of the first substance listed, at infinite dilution; xn = mol fraction of the nth substance listed; conditions: 322.85 K; Liquid; Chromatography; x1 = 0
measured_parameter: activity coefficient

# count of solved cases: 3
compound | activity coefficient
C=CCCCC [hex-1-ene] + CCCCCCCC[N+](CCCCCCCC)(CCCCCCCC)CCCCCCCC.O=S(=O)([N-]S(=O)(=O)C(F)(F)F)C(F)(F)F | 1.05
CC(C)CC(C)(C)C [2,2,4-trimethylpentane] + CCCCCCCCCC[N+](C)(C)C.O=S(=O)([N-]S(=O)(=O)C(F)(F)F)C(F)(F)F | 5.41
CCC(C)CC [3-methylpentane] + CCCC[N+](C)(CCCC)CCCC.O=S(=O)([N-]S(=O)(=O)C(F)(F)F)C(F)(F)F | 6.1

Now turn to the next compound.
For the compound CCO [ethanol] + CCCCCCCC[N+](C)(C)C.O=S(=O)([N-]S(=O)(=O)C(F)(F)F)C(F)(F)F , what activity coefficient is on record? 1.47
